Let's go through some recorded IC50 values for AbDHODH (Acinetobacter baumannii, UniProt B7GZW7) together.
Give bare numbers, in nM.

Before answering, review these 2 worked examples.
COMPOUND: Cc1cc(Nc2ccc3c(c2)CCCC3)n2ccnc2n1 [DSM187]
TARGET ENTITY: AbDHODH (Acinetobacter baumannii, UniProt B7GZW7)
Sequence (B7GZW7 whole entry): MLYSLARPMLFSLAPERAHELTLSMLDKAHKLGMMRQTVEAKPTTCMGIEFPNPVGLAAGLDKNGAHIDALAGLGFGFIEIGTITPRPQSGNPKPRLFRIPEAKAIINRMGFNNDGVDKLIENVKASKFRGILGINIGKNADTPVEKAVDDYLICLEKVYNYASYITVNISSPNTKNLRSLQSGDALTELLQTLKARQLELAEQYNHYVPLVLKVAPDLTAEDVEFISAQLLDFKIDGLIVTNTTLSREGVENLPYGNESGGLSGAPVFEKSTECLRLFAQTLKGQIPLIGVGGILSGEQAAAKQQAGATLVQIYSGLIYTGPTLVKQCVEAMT
U: nM
IC50: 170
--
COMPOUND: Cc1cc(Nc2ccc(S(F)(F)(F)(F)F)cc2)n2ccnc2n1 [DSM186]
TARGET ENTITY: AbDHODH (Acinetobacter baumannii, UniProt B7GZW7)
U: nM
IC50: 28

Hi, could you look up IC50 for each item in my list?
1. Cc1cc(Nc2ccc(S(F)(F)(F)(F)F)cc2)n2nc(C(C)(F)F)nc2n1 [DSM265]
2. Cc1cc(Nc2ccc(C(F)(F)F)cc2)c2ccccc2n1 [DSM250]
3. Cc1cc(Nc2ccc(C(F)(F)F)c(F)c2)n2ncnc2n1 [DSM125]
4. Cc1cc(Nc2ccc(S(F)(F)(F)(F)F)cc2)n2ncnc2n1 [DSM161]

590
85
910
300

* * *

# TARGET ENTITY: HsDHODH (Homo sapiens, UniProt Q02127)
# Sequence (Q02127 whole entry): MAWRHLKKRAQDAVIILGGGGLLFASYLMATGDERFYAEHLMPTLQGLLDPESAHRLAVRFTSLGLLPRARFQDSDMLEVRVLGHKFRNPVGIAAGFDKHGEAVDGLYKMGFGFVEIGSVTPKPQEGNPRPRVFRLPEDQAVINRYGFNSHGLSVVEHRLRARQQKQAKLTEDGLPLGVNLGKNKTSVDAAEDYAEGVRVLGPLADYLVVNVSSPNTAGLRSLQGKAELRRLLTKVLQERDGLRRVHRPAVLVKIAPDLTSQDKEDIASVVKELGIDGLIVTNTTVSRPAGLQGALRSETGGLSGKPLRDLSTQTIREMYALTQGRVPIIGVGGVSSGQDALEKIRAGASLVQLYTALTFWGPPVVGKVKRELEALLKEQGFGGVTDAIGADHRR
# ASSAY DETAILS: biochemical
Would you mind telling me the reported IC50 of each entry?

SMILES INPUT: Cc1cc(Nc2ccc(C(F)(F)F)cc2)c2ccccc2n1
RESULT: > 100 µM

Kindly consider the entry below.
Supply reported IC50 belonging to this compound: Cc1cc(Nc2ccc(S(F)(F)(F)(F)F)cc2)n2ccnc2n1
> 100 µM

* * *

# Test system: A. baumannii LAC-4 (MDR)
# ASSAY DETAILS: Antimicrobial susceptibility testing in MM
# Assay type: cell-based
# CONDITION SET: Acinetobacter baumannii, 24 h, read-out: LAC-4 EC50
For each of the molecules below, state its EC50.
Give bare numbers, in nM.

SMILES INPUT: Cc1cc(Nc2ccc(C(F)(F)F)cc2)c2ccccc2n1
EC50 (nM): 1600

Take each entry in turn and give its EC50.
1. Cc1cc(Nc2ccc(S(F)(F)(F)(F)F)cc2)n2ccnc2n1
2. Cc1cc(Nc2ccc(S(F)(F)(F)(F)F)cc2)n2ncnc2n1

170
4400
